Kd values for the binders below.
target: T1, cynomolgus monkey BCMA (cynomolgus monkey, UniProt A0A2K5UD97 1-53); assay: SPR, IgG on chip, cyBCMA analyte
T1 construct: Soluble analyte in SPR; construct not described; also called cyBCMA; Cyno BCMA
T1 sequence (A0A2K5UD97 entry or part of it): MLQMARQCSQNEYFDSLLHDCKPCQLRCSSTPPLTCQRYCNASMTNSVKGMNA
Please answer in the form of a number followed by its unit of measurement.

A02_Rd4_0.6nM_C09 (antibody, V domains shown, IgG) VH: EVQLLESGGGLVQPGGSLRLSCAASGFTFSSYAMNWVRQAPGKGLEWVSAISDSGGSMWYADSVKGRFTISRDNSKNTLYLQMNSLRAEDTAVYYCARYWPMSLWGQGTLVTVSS VL: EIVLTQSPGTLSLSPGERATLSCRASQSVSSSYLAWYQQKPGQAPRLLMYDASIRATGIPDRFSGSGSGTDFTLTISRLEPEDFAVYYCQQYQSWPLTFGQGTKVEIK | 0.082 nM
C01_Rd4_6nM_C12 (antibody, V domains shown, IgG; also called PC1C12) VH: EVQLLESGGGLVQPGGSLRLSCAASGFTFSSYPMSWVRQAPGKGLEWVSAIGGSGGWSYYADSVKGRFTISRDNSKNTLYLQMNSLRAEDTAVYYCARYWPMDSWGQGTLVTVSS VL: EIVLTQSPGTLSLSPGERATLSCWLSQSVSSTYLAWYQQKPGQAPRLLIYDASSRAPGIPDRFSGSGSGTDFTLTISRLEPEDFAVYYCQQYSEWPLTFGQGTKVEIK | 0.82 nM

Next binder, please.
Enquiry: // Kd lookup, key: COMBO_Rd4_0.6nM_C21 (antibody, V domains shown, IgG) VH: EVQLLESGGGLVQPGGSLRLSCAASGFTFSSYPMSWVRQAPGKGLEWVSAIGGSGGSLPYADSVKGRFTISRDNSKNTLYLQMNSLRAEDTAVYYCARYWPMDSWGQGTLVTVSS VL: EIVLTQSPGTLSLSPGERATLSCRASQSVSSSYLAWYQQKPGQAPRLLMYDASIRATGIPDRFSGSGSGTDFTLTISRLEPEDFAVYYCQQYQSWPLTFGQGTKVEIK
Return: 0.084 nM
